Reported % of fluorescence positive cells by item:
Molecular target: T1, recombinant hIL-18Rα extracellular domain (human, UniProt Q13478 22-329, biotin label (selection) or fluorescent probe (single-clone FACS), sites not given)
T1 construct: extracellular domain; also called hIL-18Rα ECD; hIL-18Rα-ECD
T1 sequence (looked up): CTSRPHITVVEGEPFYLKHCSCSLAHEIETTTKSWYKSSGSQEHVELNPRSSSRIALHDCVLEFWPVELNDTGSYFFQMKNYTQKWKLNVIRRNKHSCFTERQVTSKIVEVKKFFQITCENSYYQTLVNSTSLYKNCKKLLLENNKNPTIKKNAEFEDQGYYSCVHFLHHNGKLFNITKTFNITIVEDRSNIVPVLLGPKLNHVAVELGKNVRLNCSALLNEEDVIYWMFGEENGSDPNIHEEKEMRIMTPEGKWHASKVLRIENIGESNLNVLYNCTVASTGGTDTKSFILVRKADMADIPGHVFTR
Test: single-clone FACS, yeast display, 10 nM labelled hIL-18Rα ECD
Respond numerically; units are % and should not be typed.

binder	unit.annotation	value.observed
SEQ ID NO 112 (ligand) YFPKLRSKLSVIRNLNDQVLFIDQGNRPLFEDMTDSDCRDNAPRTIFIISMYKHSTNRGMAVTISVKCEKISTLSCENKIISFKEMNPPDIIKDTKSDIIFFQISVPGHDNKMQFESSSYEGYFLACEKERDLFKLILKKEDELGDRSIMFTVQNED	%	0.69

I have this binder here, SEQ ID NO 68 (ligand) YFPKLKSKLSVIRNLNDQVLFIDQGNRPLFEDMTDSDCRDNAPRTIFIISMYKWSPWRGMAVTISVKCEKISTLSCENKIISFKEMNPPDNIKDTKSDIIFFQTSVPGHDNKMQFESSSYEGYFLACEKERDLFKLILKKEDELGDRSIMFTVQNED , and I need its recorded % of fluorescence positive cells.
60.9

Recorded values, source patent US20260092093A1.
